- Species: Rattus norvegicus
- method.description: Displacement of [3H]prazosin from alpha1 adrenergic receptor in Sprague-Dawley rat cortical membrane at 1 uM
As shown below, each of these compounds has a reported Activity value.
Provide a numeric answer, followed by its unit.

>  <compound>
NC(=O)c1ccc(F)c2c1CC(N(CCCc1c[nH]c3c(Cl)cccc13)C1CCC1)CO2 (stereo not drawn)

>  <Activity>
29%

$$$$
>  <compound>
CCCN(CCCCn1ccc2cccc(F)c21)C1COc2c(F)ccc(C(N)=O)c2C1 (stereo not drawn)

>  <Activity>
39%

$$$$
>  <compound>
CCCN(CCCc1c[nH]c2ccc(F)cc12)[C@H]1COc2c(F)ccc(OC)c2C1

>  <Activity>
50%

$$$$
>  <compound>
O=C(NC1CCCCC1)c1ccc(F)c2c1CC(N(CCCc1c[nH]c3ccc(F)cc13)C1CCC1)CO2 (stereo not drawn)

>  <Activity>
21%

$$$$
>  <compound>
CCCN(CCCCn1ccc2ccc(F)cc21)C1COc2c(F)ccc(C(N)=O)c2C1 (stereo not drawn)

>  <Activity>
15%

$$$$

Q) Fill blank: measured Activity of the compound NC(=O)c1cccc2c1CC(N(CCCc1c[nH]c3ccc(F)cc13)C1CCC1)CO2 (stereo in doubt; (+)-35e) is ____.
A) 6%
